Organism: Rattus norvegicus
Assay: Open TG-GATES - Regimen: Single
Format: toxicity, organism-based, Sprague-Dawley
Design: regimen Single, gender Male, age 6 weeks
Settings: in vivo, po, 0 mg/kg, 24 h, tissue Plasma, route gavage, dose level Control
metric name: Cl
Your reply should be a number followed by the unit it is expressed in.

Q) Note Cl for the compound shown: O=C(O)c1cc(/N=N/c2ccc(S(=O)(=O)Nc3ccccn3)cc2)ccc1O
A) 101.6 meq/L

Q) Note Cl for the compound shown: NC(=O)N/N=C/c1ccc([N+](=O)[O-])o1
A) 104.8 meq/L

Q) Note Cl for the compound shown: COc1cc2c(c3oc(=O)c4c(c13)CCC4=O)[C@@H]1C=CO[C@@H]1O2
A) 104.1 meq/L

Q) Note Cl for the compound shown: Cn1c(=O)c2[nH]cnc2n(C)c1=O.O
A) 106.2 meq/L

Q) Note Cl for the compound shown: CN(C)CCC=C1c2ccccc2CCc2ccccc21
A) 105 meq/L

Q) Note Cl for the compound shown: CCc1cc(C(N)=S)ccn1 [ETHIONAMIDE]
A) 104.4 meq/L

Q) Note Cl for the compound shown: CC(=O)Oc1ccccc1C(=O)O
A) 103.6 meq/L

Q) Note Cl for the compound shown: NC(=O)N1c2ccccc2C=Cc2ccccc21 [CARBAMAZEPINE]
A) 102.4 meq/L

Q) Note Cl for the compound shown: COc1ccc(Cc2nccc3cc(OC)c(OC)cc23)cc1OC
A) 106.2 meq/L

---

Species on record: Rattus norvegicus
Test: Open TG-GATES - Regimen: Daily Repeat
Assay type: toxicity, organism-based, Sprague-Dawley
Design: regimen Daily Repeat, gender Male, age 6 weeks
Details: in vivo, po, 0 mg/kg, […], tissue Plasma, route gavage, dose level Control, time 28 day
For each entry below, report its LDH value.
Kindly answer with a numeric value in IU/L, unit omitted.

Q) Note LDH for the compound shown: CCc1cc(C(N)=S)ccn1 [ETHIONAMIDE]
A) 74.8

Q) Note LDH for the compound shown: CSc1ccc2c(c1)N(CCC1CCCCN1C)c1ccccc1S2 (configuration not stated)
A) 135.2

Q) Note LDH for the compound shown: Clc1ccccc1CN1CCc2sccc2C1
A) 168.2

Q) Note LDH for the compound shown: O=C(O)c1cc(/N=N/c2ccc(S(=O)(=O)Nc3ccccn3)cc2)ccc1O
A) 287.2

Q) Note LDH for the compound shown: CN(C)CCC=C1c2ccccc2CCc2ccccc21
A) 116.2

Q) Note LDH for the compound shown: Cn1c(=O)c2[nH]cnc2n(C)c1=O.O
A) 132.2

Q) Note LDH for the compound shown: CCCC(CCC)C(=O)O
A) 175.2

---

For each entry below, report its Ca value.
Species on record: Rattus norvegicus
Assay: Open TG-GATES - Regimen: Single
Type: toxicity, organism-based, Sprague-Dawley
Design: regimen Single, gender Male, age 6 weeks
Conditions: in vivo, po, 0 mg/kg, 24 h, tissue Plasma, route gavage, dose level Control
Kindly answer with a numeric value in mg/dL, unit omitted.

Q) Note Ca for the compound shown: CSc1ccc2c(c1)N(CCC1CCCCN1C)c1ccccc1S2 (configuration not stated)
A) 11

Q) Note Ca for the compound shown: CCc1cc(C(N)=S)ccn1 [ETHIONAMIDE]
A) 11

Q) Note Ca for the compound shown: Cn1c(=O)c2[nH]cnc2n(C)c1=O.O
A) 10.9

Q) Note Ca for the compound shown: NC(=O)N1c2ccccc2C=Cc2ccccc21 [CARBAMAZEPINE]
A) 10.6

Q) Note Ca for the compound shown: O=C(O)c1cc(/N=N/c2ccc(S(=O)(=O)Nc3ccccn3)cc2)ccc1O
A) 10.7

Q) Note Ca for the compound shown: COc1cc2c(c3oc(=O)c4c(c13)CCC4=O)[C@@H]1C=CO[C@@H]1O2
A) 10.8

Q) Note Ca for the compound shown: O=C(O)c1cn(C2CC2)c2cc(N3CCNCC3)c(F)cc2c1=O
A) 11.3

Q) Note Ca for the compound shown: C[C@H](CS)C(=O)N1CCC[C@H]1C(=O)O
A) 11

Q) Note Ca for the compound shown: NC(=O)N/N=C/c1ccc([N+](=O)[O-])o1
A) 11.3

Q) Note Ca for the compound shown: COc1ccc(Cc2nccc3cc(OC)c(OC)cc23)cc1OC
A) 10.8

Q) Note Ca for the compound shown: CN(C)CCC=C1c2ccccc2CCc2ccccc21
A) 11.1

Q) Note Ca for the compound shown: CC(=O)Oc1ccccc1C(=O)O
A) 10.6
